System: HeLa Kyoto;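 also: HeLa Kyoto cells synchronized by double thymidine or nocodazole block, proteins quantified by TMT10plex mass spectrometry, three independent biological replicates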
ASSAY_OVERVIEW: melting temperature (median over replicates), in situ; higher = more thermally stable
CONDITION_NOTES: cell cycle stage: G1/S
METRIC: melting temperature (°C)

>  <SUBSTANCE>
MAHVGSRKRSRSRSRSRGRGSEKRKKKSRKDTSRNCSASTSQGRKASTAPGAEASPSPCITERSKQKARRRTRSSSSSSSSSSSSSSSSSSSSSSSSSDGRKKRGKYKDKRRKKKKKRKKLKKKGKEKAEAQQVEALPGPSLDQWHRSAGEEEDGPVLTDEQKSRIQAMKPMTKEEWDARQSIIRKVVDPETGRTRLIKGDGEVLEEIVTKERHREINKQATRGDCLAFQMRAGLLP [ARL6IP4]

>  <UNIT_TAG>
°C

>  <NUMBER>
52.6

$$$$
>  <SUBSTANCE>
MDPRKVNELRAFVKMCKQDPSVLHTEEMRFLREWVESMGGKVPPATQKAKSEENTKEEKPDSKKVEEDLKADEPSSEESDLEIDKEGVIEPDTDAPQEMGDENAEITEEMMDQANDKKVAAIEALNDGELQKAIDLFTDAIKLNPRLAILYAKRASVFVKLQKPNAAIRDCDRAIEINPDSAQPYKWRGKAHRLLGHWEEAAHDLALACKLDYDEDASAMLKEVQPRAQKIAEHRRKYERKREEREIKERIERVKKAREEHERAQREEEARRQSGAQYGSFPGGFPGGMPGNFPGGMPGMGGGMPGMAGMPGLNEILSDPEVLAAMQDPEVMVAFQDVAQNPANMSKYQSNPKVMNLISKLSAKFGGQA [ST13]

>  <UNIT_TAG>
°C

>  <NUMBER>
51.8

$$$$
>  <SUBSTANCE>
MKLGRAVLGLLLLAPSVVQAVEPISLGLALAGVLTGYIYPRLYCLFAECCGQKRSLSREALQKDLDDNLFGQHLAKKIILNAVFGFINNPKPKKPLTLSLHGWTGTGKNFVSKIIAENIYEGGLNSDYVHLFVATLHFPHASNITLYKDQLQLWIRGNVSACARSIFIFDEMDKMHAGLIDAIKPFLDYYDLVDGVSYQKAMFIFLSNAGAERITDVALDFWRSGKQREDIKLKDIEHALSVSVFNNKNSGFWHSSLIDRNLIDYFVPFLPLEYKHLKMCIRVEMQSRGYEIDEDIVSRVAEEMTFFPKEERVFSDKGCKTVFTKLDYYYDD [TOR1A]

>  <UNIT_TAG>
°C

>  <NUMBER>
53.7

$$$$
>  <SUBSTANCE>
SMARCA2

>  <UNIT_TAG>
°C

>  <NUMBER>
47.8

$$$$
>  <SUBSTANCE>
MAEPTVCSFLTKVLCAHGGRMFLKDLRGHVELSEARLRDVLQRAGPERFLLQEVETQEGLGDAEAEAAAGAVGGGGTSAWRVVAVSSVRLCARYQRGECQACDQLHFCRRHMLGKCPNRDCWSTCTLSHDIHTPVNMQVLKSHGLFGLNENQLRILLLQNDPCLLPEVCLLYNKGEALYGYCNLKDKCNKFHVCKSFVKGECKLQTCKRSHQLIHAASLKLLQDQGLNIPSVVNFQIISTYKHMKLHKMLENTDNSSPSTEHSQGLEKQGVHAAGAAEAGPLASVPAQSAKKPCPVSCEK [ZC3HAV1L]

>  <UNIT_TAG>
°C

>  <NUMBER>
50.2

$$$$
>  <SUBSTANCE>
MGKGCKVVVCGLLSVGKTAILEQLLYGNHTIGMEDCETMEDVYMASVETDRGVKEQLHLYDTRGLQEGVELPKHYFSFADGFVLVYSVNNLESFQRVELLKKEIDKFKDKKEVAIVVLGNKIDLSEQRQVDAEVAQQWAKSEKVRLWEVTVTDRKTLIEPFTLLASKLSQPQSKSSFPLPGRKNKGNSNSEN [NKIRAS1]

>  <UNIT_TAG>
°C

>  <NUMBER>
48.9

$$$$
>  <SUBSTANCE>
MSAARESHPHGVKRSASPDDDLGSSNWEAADLGNEERKQKFLRLMGAGKKEHTGRLVIGDHKSTSHFRTGEEDKKINEELESQYQQSMDSKLSGRYRRHCGLGFSEVEDHDGEGDVAGDDDDDDDDSPDPESPDDSESDSESEKEESAEELQAAEHPDEVEDPKNKKDAKSNYKMMFVKSSGS [C11ORF58]

>  <UNIT_TAG>
°C

>  <NUMBER>
55

$$$$
>  <SUBSTANCE>
MSTKNFRVSDGDWICPDKKCGNVNFARRTSCNRCGREKTTEAKMMKAGGTEIGKTLAEKSRGLFSANDWQCKTCSNVNWARRSECNMCNTPKYAKLEERTGYGGGFNERENVEYIEREESDGEYDEFGRKKKKYRGKAVGPASILKEVEDKESEGEEEDEDEDLSKYKLDEDEDEDDADLSKYNLDASEEEDSNKKKSNRRSRSKSRSSHSRSSSRSSSPSSSRSRSRSRSRSSSSSQSRSRSSSRERSRSRGSKSRSSSRSHRGSSSPRKRSYSSSSSSPERNRKRSRSRSSSSGDRKKRRTRSRSPERRHRSSSGSSHSGSRSSSKKK [ZRANB2]

>  <UNIT_TAG>
°C

>  <NUMBER>
58

$$$$
>  <SUBSTANCE>
MAPSGSLAVPLAVLVLLLWGAPWTHGRRSNVRVITDENWRELLEGDWMIEFYAPWCPACQNLQPEWESFAEWGEDLEVNIAKVDVTEQPGLSGRFIITALPTIYHCKDGEFRRYQGPRTKKDFINFISDKEWKSIEPVSSWFGPGSVLMSSMSALFQLSMWIRTCHNYFIEDLGLPVWGSYTVFALATLFSGLLLGLCMIFVADCLCPSKRRRPQPYPYPSKKLLSESAQPLKKVEEEQEADEEDVSEEEAESKEGTNKDFPQNAIRQRSLGPSLATDKS [TMX1]

>  <UNIT_TAG>
°C

>  <NUMBER>
54.7

$$$$
>  <SUBSTANCE>
MSRHEGVSCDACLKGNFRGRRYKCLICYDYDLCASCYESGATTTRHTTDHPMQCILTRVDFDLYYGGEAFSVEQPQSFTCPYCGKMGYTETSLQEHVTSEHAETSTEVICPICAALPGGDPNHVTDDFAAHLTLEHRAPRDLDESSGVRHVRRMFHPGRGLGGPRARRSNMHFTSSSTGGLSSSQSSYSPSNREAMDPIAELLSQLSGVRRSAGGQLNSSGPSASQLQQLQMQLQLERQHAQAARQQLETARNATRRTNTSSVTTTITQSTATTNIANTESSQQTLQNSQFLLTRLNDPKMSETERQSMESERADRSLFVQELLLSTLVREESSSSDEDDRGEMADFGAMGCVDIMPLDVALENLNLKESNKGNEPPPPPL [KCMF1]

>  <UNIT_TAG>
°C

>  <NUMBER>
51.7

$$$$
>  <SUBSTANCE>
MLLSLVLHTYSMRYLLPSVVLLGTAPTYVLAWGVWRLLSAFLPARFYQALDDRLYCVYQSMVLFFFENYTGVQILLYGDLPKNKENIIYLANHQSTVDWIVADILAIRQNALGHVRYVLKEGLKWLPLYGCYFAQHGGIYVKRSAKFNEKEMRNKLQSYVDAGTPMYLVIFPEGTRYNPEQTKVLSASQAFAAQRGLAVLKHVLTPRIKATHVAFDCMKNYLDAIYDVTVVYEGKDDGGQRRESPTMTEFLCKECPKIHIHIDRIDKKDVPEEQEHMRRWLHERFEIKDKMLIEFYESPDPERRKRFPGKSVNSKLSIKKTLPSMLILSGLTAGMLMTDAGRKLYVNTWIYGTLLGCLWVTIKA [AGPAT5]

>  <UNIT_TAG>
°C

>  <NUMBER>
52.1

$$$$
